molecular target: the molecule itself; assay: SEC; MBP-DFCP1 (112-415) constructs on HiLoad 26/600 Superdex 200 pg; 25 mM Tris pH 8.0, 150 mM NaCl, 1 mM MgCl2, 1 mM DTT; monomer and dimer peaks

protein	binding result
MBP-DFCP1 (112-415) K193A (domain or fragment, mouse, UniProt Q810J8 112-415, looked up, Mouse DFCP1, UniProt Q810J8, residues 112-415 (NTPase domain) with K193A, in pMal-c2e; also called KA; K193A NTPase domain; source: E. coli Rosetta (DE3), purified (amylose resin, Superdex 200 SEC); not shown: MBP, N-terminal, kept) NKRRHPITVYLVSKVQESLEGEEMDEETKRKKMTERVVSFLLVDENEEIQVTNEEDFIRKLDCKPDQHLKVVSIFGNTGDGASHTLNHTFFYGREVFKTSPAQESCTVGVWAAYDPVHKVAVIDTEGLLGATVNLSQRTRLLLKVLAISDLVIYRTHADRLHNDLFKFLGDASEAYLKHFTKELKATTARCGLDVPLSTLGPAVIIFHETVHTQLLGSDHPSEAPEKLIQDRFRKLGRFPEAFSSIHYKGTRTYNPPTDFSGLRRALEQLLENNTTRSPRHPGVIFKALKALSDRFSGEIPDDQ	binds
MBP-DFCP1 (112-415) R266Q (domain or fragment, mouse, UniProt Q810J8 112-415, looked up, Mouse DFCP1, UniProt Q810J8, residues 112-415 (NTPase domain) with R266Q, in pMal-c2e; R266Q is a cancer-related mutation found in human patients (endometrial and colorectal cancers); Here it was introduced into the mouse NTPase domain by mutagenesis; also called RQ; RQm/RQd (monomeric/dimeric states); source: E. coli Rosetta (DE3), purified (amylose resin, Superdex 200 SEC); not shown: MBP, …) NKRRHPITVYLVSKVQESLEGEEMDEETKRKKMTERVVSFLLVDENEEIQVTNEEDFIRKLDCKPDQHLKVVSIFGNTGDGKSHTLNHTFFYGREVFKTSPAQESCTVGVWAAYDPVHKVAVIDTEGLLGATVNLSQRTRLLLKVLAISDLVIYQTHADRLHNDLFKFLGDASEAYLKHFTKELKATTARCGLDVPLSTLGPAVIIFHETVHTQLLGSDHPSEAPEKLIQDRFRKLGRFPEAFSSIHYKGTRTYNPPTDFSGLRRALEQLLENNTTRSPRHPGVIFKALKALSDRFSGEIPDDQ	binds
MBP-DFCP1 (112-415) K193A/R266Q (domain or fragment, mouse, UniProt Q810J8 112-415, looked up, Mouse DFCP1, UniProt Q810J8, residues 112-415 (NTPase domain) with both K193A and R266Q, in pMal-c2e; also called KARQ; KA/RQ; source: E. coli Rosetta (DE3), purified (amylose resin, Superdex 200 SEC); not shown: MBP, N-terminal, kept) NKRRHPITVYLVSKVQESLEGEEMDEETKRKKMTERVVSFLLVDENEEIQVTNEEDFIRKLDCKPDQHLKVVSIFGNTGDGASHTLNHTFFYGREVFKTSPAQESCTVGVWAAYDPVHKVAVIDTEGLLGATVNLSQRTRLLLKVLAISDLVIYQTHADRLHNDLFKFLGDASEAYLKHFTKELKATTARCGLDVPLSTLGPAVIIFHETVHTQLLGSDHPSEAPEKLIQDRFRKLGRFPEAFSSIHYKGTRTYNPPTDFSGLRRALEQLLENNTTRSPRHPGVIFKALKALSDRFSGEIPDDQ	binds

// data source = paper PMC9881219
